# Tested on: VCap cells
# assayNotes: Inhibition of proliferation of VCap cells (Cell Titer Glo, 6 days)
# Type: cell-based
# details: Homo sapiens, 144 h; VCaP cell proliferation, 6 days, 5% FBS and 0.1 nM R1881; read-out: IC50
readoutType: pIC50
// field semantics: pIC50 = negative decimal log of concentration (mol/L)

Req: Find the recorded pIC50 belonging to CC1(C)C(=O)N(c2ccc(C#N)c(Cl)c2)c2ccc(-c3cnc(N4CC(CN5CCN(c6ccc7c(c6)C(=O)N(C6CCC(=O)NC6=O)C7=O)CC5)C4)cn3)cc21 (stereo not shown) and report it.
Resp: 7.30

====

# measuredOn: androgen receptor (Homo sapiens, UniProt P10275, T878A)
# Construct: endogenous in cells; host or cells: LNCaP cells
# Sequence (P10275 1-920 T878A): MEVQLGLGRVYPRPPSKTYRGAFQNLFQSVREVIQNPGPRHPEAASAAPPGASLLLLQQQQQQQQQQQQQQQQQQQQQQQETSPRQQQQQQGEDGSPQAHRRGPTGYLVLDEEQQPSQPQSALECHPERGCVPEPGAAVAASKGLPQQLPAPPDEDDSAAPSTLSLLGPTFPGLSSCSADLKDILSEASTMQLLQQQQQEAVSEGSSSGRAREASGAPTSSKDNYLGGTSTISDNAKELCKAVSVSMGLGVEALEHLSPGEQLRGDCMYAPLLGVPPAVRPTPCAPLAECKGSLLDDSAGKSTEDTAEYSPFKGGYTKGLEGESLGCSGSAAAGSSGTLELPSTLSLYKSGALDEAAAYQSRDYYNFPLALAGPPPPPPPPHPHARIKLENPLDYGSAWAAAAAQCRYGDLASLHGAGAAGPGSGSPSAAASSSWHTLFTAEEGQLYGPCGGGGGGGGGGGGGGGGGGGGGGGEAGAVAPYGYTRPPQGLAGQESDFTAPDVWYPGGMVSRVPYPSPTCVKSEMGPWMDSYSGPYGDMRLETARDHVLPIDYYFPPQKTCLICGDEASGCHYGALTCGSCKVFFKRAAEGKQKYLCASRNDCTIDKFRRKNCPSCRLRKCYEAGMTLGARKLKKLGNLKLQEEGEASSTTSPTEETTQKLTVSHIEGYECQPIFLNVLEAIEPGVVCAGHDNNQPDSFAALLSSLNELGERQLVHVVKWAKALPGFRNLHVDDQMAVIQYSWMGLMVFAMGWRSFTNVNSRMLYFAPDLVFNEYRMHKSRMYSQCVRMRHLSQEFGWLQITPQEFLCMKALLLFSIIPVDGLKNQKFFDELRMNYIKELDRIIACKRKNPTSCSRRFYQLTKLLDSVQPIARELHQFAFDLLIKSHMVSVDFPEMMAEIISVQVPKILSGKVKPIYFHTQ
# assayNotes: In-Cell-Western determination of androgen receptor degradation in LnCaP cells
# Type: cell-based
# details: LNCaP
readoutType: Dmax (%)
Answer in %, number only, no unit symbol.

Req: Find the recorded Dmax belonging to CC1(C)C(=O)N(c2ccc(C#N)c(Cl)c2)c2ccc(-c3ccc(N4CC(CN5CCN(c6ccc7c(c6)C(=O)N(C6CCC(=O)NC6=O)C7=O)CC5)C4)nc3F)cc21 (centres unmarked) and report it.
Resp: 93

Req: Find the recorded Dmax belonging to CC1(C)C(=O)N(c2ccc(C#N)c(Cl)c2)c2ccc(-c3ccc(N4CC(CN5CCN(c6ccc7c(c6)CN(C6CCC(=O)NC6=O)C7=O)CC5)C4)cc3)cc21 (centres unmarked) and report it.
Resp: 91

Req: Find the recorded Dmax belonging to CC1(C)C(=O)N(c2ccc(C#N)c(Cl)c2)c2ccc(-c3ccc(-c4cnn(CCN5CCN(c6ccc7c(c6)C(=O)N(C6CCC(=O)NC6=O)C7=O)CC5)c4)cc3)cc21 (centres unmarked) and report it.
Resp: 75

Req: Find the recorded Dmax belonging to CC1(C)C(=O)N(c2ccc(C#N)c(Cl)c2)c2ccc(-c3ccc(N4CC(CN5CCN(c6ccc7c(c6)C(=O)N(C6CCC(=O)NC6=O)C7=O)CC5)C4)cc3)cc21 (centres unmarked) and report it.
Resp: 82

Req: Find the recorded Dmax belonging to CC1(C)C(=O)N(c2ccc(C#N)c(C(F)(F)F)c2)c2ccc(-c3ccc(N4CC(CN5CCN(c6ccc7c(c6)C(=O)N(C6CCC(=O)NC6=O)C7=O)CC5)C4)nc3F)cc21 (centres unmarked) and report it.
Resp: 67

Hello, the source for this data is patent US12441706B2, in case you need it.
